- System: OVCAR4
- experimental.protocol: Euclidean distance of Cell Painting phenotypic profile (signed KS, 77 features) to DMSO centroid (dimensionless distance); 5 or 10 uM (library dependent); higher = stronger phenotypic change vs DMSO (phenoactivity)
- condition.summary: 48 h
compounds and their reported Euclidean distance
Answer with the value's number alone.

Look over these answered cases.
compound="CCC1(C)CC(=O)NC1=O (centres undefined) [Ethosuximide]" measured_number=1.04
compound=CC(C)N(CCC(=O)c1ccc2ccccc2c1)Cc1ccccc1 measured_number=0.928
compound="Cl.NCCCC[C@H](N)C(=O)O [L-Lysine hydrochloride]" measured_number=0.646
compound="C[C@H](N[C@@H](CCc1ccccc1)C(=O)O)C(=O)N1CCC[C@H]1C(=O)O [Enalaprilat Dihydrate]" measured_number=1
compound="O=S(=O)(O)CCSSCCS(=O)(=O)O [Dimesna]" measured_number=1.13
compound="C[C@@H]1C[C@H]2[C@@H]3CCC4=CC(=O)C=C[C@]4(C)[C@@]3(F)[C@@H](O)C[C@]2(C)[C@@]1(O)C(=O)COP(=O)(O)O [Dexamethasone Sodium Phosphate]" measured_number=2.38
compound="Nc1cc(F)ccc1NC(=O)c1ccc(CNC(=O)/C=C/c2cccnc2)cc1 [Tucidinostat (Chidamide)]" measured_number=2.66
compound="CC(O)Cn1cnc2c1c(=O)n(C)c(=O)n2C (centres undefined) [Proxyphylline]" measured_number=1.03

Please look at this compound and report its Euclidean distance: CNS(=O)(=O)Cc1ccc2[nH]cc(CCN(C)C)c2c1 [Sumatriptan Succinate] 1.66

Please look at this compound and report its Euclidean distance: CN[C@@H]1[C@H](O)[C@H](NC)[C@H]2O[C@@]3(O)C(=O)C[C@@H](C)O[C@H]3O[C@@H]2[C@H]1O [Spectinomycin 2HCl] 0.972

Please look at this compound and report its Euclidean distance: C=C1C(=O)O[C@@H]2/C=C(\C)CC/C=C(\C)CC[C@@H]12 [Costunolide] 0.93

Please look at this compound and report its Euclidean distance: O=c1ncccn1[C@@H]1O[C@H](CO)[C@@H](O)[C@H]1O [Zebularine] 0.492

Please look at this compound and report its Euclidean distance: Oc1c2ccccc2c2c3c(cccc13)N=N2 0.655

Please look at this compound and report its Euclidean distance: COc1ncc(-c2ccc3nccc(-c4ccnnc4)c3c2)cc1NS(=O)(=O)c1ccc(F)cc1F 3.04

Data provenance is the supplement of paper PMC10127200.
